test system: human MDM2 (GST-hMDM2 1-188), interaction with biotinylated-p53 (1-83) (Homo sapiens, UniProt Q00987)
Construct: Amino acid residues 1-188 of human MDM2 were expressed
Sequence (Q00987 1-188): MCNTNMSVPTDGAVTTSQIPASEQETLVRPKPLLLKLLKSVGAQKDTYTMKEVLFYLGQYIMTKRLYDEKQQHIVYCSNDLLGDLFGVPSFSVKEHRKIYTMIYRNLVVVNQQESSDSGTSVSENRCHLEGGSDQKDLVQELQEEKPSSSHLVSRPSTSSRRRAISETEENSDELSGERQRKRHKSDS
method notes: improved HTRF assay (HTRF2 assay), inhibition of HDM2-p53 interaction
study conditions: 0.2 nM GST-hMDM2, 0.5 nM biotinylated-p53, 100 mM KF
Define the label as Yes when IC50 is strictly less than 4 nM and as No in all remaining cases.

CC(C)[C@@H](CS(=O)(=O)C(C)(C)C)N1C(=O)[C@@H](CC(=O)O)O[C@H](c2cccc(Cl)c2)[C@H]1c1ccc(Cl)c(F)c1 (single isomer, unassigned) [Example 310]	Yes

Say whether its IC50 is strictly beneath 4 nM. Entry: CC(C)(C)S(=O)(=O)C[C@H](C1CC1)N1C(=O)[C@@H](CC(=O)NCC#N)O[C@H](c2cccc(Cl)c2)[C@H]1c1ccc(Cl)cc1 (single isomer, unassigned) [Example 349]
Yes

Say whether its IC50 is strictly beneath 4 nM. Entry: CC[C@@H](CN(c1ccccc1F)S(=O)(=O)C1CC1)N1C(=O)[C@@H]([C@@H](C)C(=O)O)O[C@H](c2cccc(Cl)c2)[C@H]1c1ccc(Cl)cc1 (single isomer, unassigned) [Example 253]
No

Say whether its IC50 is strictly beneath 4 nM. Entry: CC(C)(C)S(=O)(=O)C[C@H](C1CC1)N1C(=O)[C@@H](CC(N)=O)O[C@H](c2cccc(Cl)c2)[C@H]1c1ccc(Cl)cc1 (single isomer, unassigned) [Example 356]
No

Say whether its IC50 is strictly beneath 4 nM. Entry: NS(=O)(=O)C[C@H]1O[C@H](c2cccc(Cl)c2)[C@@H](c2ccc(Cl)cc2)N([C@H](CN(c2ccccc2F)S(=O)(=O)C2CC2)C2CC2)C1=O (single isomer, unassigned) [Example 409]
Yes

Say whether its IC50 is strictly beneath 4 nM. Entry: CC[C@@H](CN(c1ccccc1F)S(=O)(=O)C1CC1)N1C(=O)[C@@H](CC(=O)NS(C)(=O)=O)O[C@H](c2cccc(Cl)c2)[C@H]1c1ccc(Cl)cc1 (single isomer, unassigned)
No

Say whether its IC50 is strictly beneath 4 nM. Entry: CC[C@@H](CS(=O)(=O)C1CC1)N1C(=O)[C@@H](CC(=O)O)O[C@H](c2cccc(Cl)c2)[C@H]1c1ccc(Cl)cc1 (single isomer, unassigned) [Example 213]
No

Say whether its IC50 is strictly beneath 4 nM. Entry: O=C1[C@@H](Cc2cnn[nH]2)O[C@H](c2cccc(Cl)c2)[C@@H](c2ccc(Cl)cc2)N1[C@H](CN(c1ccccc1F)S(=O)(=O)C1CC1)C1CC1 (single isomer, unassigned) [Example 394]
Yes

Say whether its IC50 is strictly beneath 4 nM. Entry: O=C(O)C[C@H]1O[C@H](c2cccc(Cl)c2)[C@@H](c2ccc(Cl)cc2)N([C@H](CN(c2ccccc2F)S(=O)(=O)C2CC2)CC(F)(F)F)C1=O (single isomer, unassigned) [Example 277]
No

The measured values listed here are drawn from patent US9376425B2.
